# Test system: MCF7 breast
# test.protocol: NCI-60 one-dose screen, 48 h
# settings: 10 µM unless noted
The panel holds about 83,000 compounds, 20% with a hit somewhere; the sample as a whole holds those more often. The source made the active and inactive calls. The calls were made as follows: active = growth percent below 10; inactive = the rest.
Log the outcome using a class from active, inactive

Tell me the recorded outcome of this test for `COc1cccc(/C=C2\Cc3ccccc3C2=O)c1` .
inactive

How did this test come out for `C[C@]12CCC(=O)C=C1CC[C@H]1[C@@H]3C[C@@H](O)[C@](O)(C(=O)CO)[C@@]3(C)C[C@H](O)[C@@]12F` ?
inactive

# lookup: test call for `C[C@H]1c2cccc(O)c2C(O)=C2C(=O)[C@]3(O)C(O)=C(C(N)=O)C(=O)[C@@H](N(C)C)[C@@H]3[C@@H](O)[C@@H]21`
inactive

Hi, sorry to bother you, what did the test record for C#C[C@]1(O)CCC2C3CCc4cc(O)ccc4C3CC[C@@]21C (some centres not stated) ?
inactive

Recorded test call requested for `O=[N+]([O-])c1ccc(N=Nc2c(Cl)cc(O)cc2Cl)cc1`
active

Could you kindly confirm the outcome this assay logged for `O=C(Nc1ccccc1)c1cc(-n2cnc([N+](=O)[O-])c2)cc(-n2cnc([N+](=O)[O-])c2)n1` ?
inactive

I'd appreciate the recorded outcome for `COCCCNS(=O)(=O)c1ncnc2nc[nH]c12` from this test.
inactive

Hey, what did the test say about `CCCCN=C(N)c1ccc(OCCSCCOc2ccc(C(N)=NCCCC)cc2)cc1` ?
inactive

Dear colleague, could you share the recorded outcome for `COc1cc(NC(=O)NCc2ccco2)ccc1-c1ccc(NC(=O)NCc2ccco2)cc1OC` when you have a moment?
inactive

For this molecule, state the assay outcome: `COc1ccc2cc(-c3nc4ccccc4[nH]3)c(=O)oc2c1`
inactive

GET /call?item= `CC(=O)c1ccc(NS(=O)(=O)c2ccc([N+](=O)[O-])cc2)cc1` returns the recorded outcome of this test.
inactive

Could you check what this test reported for `COc1cc(/C=C/c2cc(/C=C/c3ccc(O)c(OC)c3)n(C(=O)Cc3ccccc3)n2)ccc1O` ?
active

Recorded test outcome, item `O=c1[nH]c(SCc2ccccc2)nc2nc(Nc3ccc(NC(=S)Nc4ccccc4)cc3)nc(-c3ccc(O)cc3O)c12`
inactive

Which outcome was assigned to `Cc1cc(=O)oc2cc(OCCn3c(C)nn(-c4ccc(Cl)cc4)c3=O)ccc12` in this test?
inactive

How was O=C(NC1CCS(=O)(=O)C1)c1ccc(C(=O)c2ccccc2)cc1 (configuration not stated) classified in this test?
inactive

Identify the outcome logged in this assay for the molecule shown: `O=C(CN1CCN(c2ccc(Cl)cc2)CC1)N1CCN(c2nnc(-c3ccccc3)c(-c3ccccc3)n2)CC1`
inactive

What was the test verdict on CC(NNC(=S)N1CCCCCC1)c1ccc2ccccc2n1 (configuration not stated) ?
inactive

Identify the outcome logged in this assay for the molecule shown: `CCOC(=O)c1cnc2c(C)cc(C)cc2c1NCCCN(C)C`
inactive

Could you check what this test reported for `COc1ccc2c(c1)[n+](=O)c(C(=O)/C=C/c1cc(OC)c(OC)c(OC)c1)c(C)n2[O-]` ?
inactive

Could you kindly confirm the outcome this assay logged for `COc1cc(Cl)cc(-c2nn(-c3cccc(NC(=O)c4cc(C(F)(F)F)cc(C(F)(F)F)c4)c3)cc2-c2ccncc2)c1` ?
inactive

Recorded test call requested for `N#Cc1c(-c2ccccc2)cc(-c2ccccc2)n(CCCCCCC(=O)O)c1=O`
inactive

Per the records of this test, what outcome belongs to `COc1cc(/C=N/OC(=O)Nc2ccccc2)cc(OC)c1OC` ?
inactive

Recorded call for `O=C1/C(=C\c2coc3ccccc3c2=O)c2ccccc2N1c1c(Cl)cccc1Cl` ?
inactive

Test call for this molecule, please: `NS(=O)(=O)c1ccc(-n2ncc3c(SCc4ccccc4)ncnc32)cc1`
inactive

Give the logged outcome of this assay for the following molecule: `Cc1csc(C#Cc2cncc(O)c2)n1`
inactive

What was the test verdict on `COC(=O)N/N=C/c1coc2ccc(Cl)cc2c1=O` ?
inactive

Write down the call the test reported for this molecule. Item: `CCCCN1c2nc3ccccc3cc2Sc2cc3ccccc3nc21`
active
